Quick reference for Emax among some molecules
biological target: PKA-N-HiBiT (Homo sapiens, UniProt P17612); experiment: SDR assay, PKA-N-HiBiT; conditions: read-out: SDR Ave Max Response

>  <MOLECULE>
O=C(NCCO)c1cccc(-c2cc(Nc3ccc(OC(F)(F)F)cc3)ncn2)c1 [GNF-5, reference compound]

>  <Emax, %>
1.25

$$$$
>  <MOLECULE>
CCN1CCN(Cc2ccc(NC(=O)c3ccc(C)c(NC(=O)c4cncc(-c5cccs5)c4)c3)cc2C(F)(F)F)CC1 [ALW-II-41-27, reference compound]

>  <Emax, %>
16.2

$$$$
>  <MOLECULE>
NC(=O)c1cccc(-c2cc(Nc3ccc(OC(F)(F)F)cc3)ncn2)c1 [GNF-2, reference compound]

>  <Emax, %>
3.86

$$$$
>  <MOLECULE>
O=c1cc(N2CCOCC2)nc2c3ccccc3ccn12 [Compound 401]

>  <Emax, %>
0.18

$$$$

###

Parameter IC50: see the listing below.
biological target: UniProt P08659; experiment: FLuc enzymatic luminescence assay, P. pyralis FLuc; assay type: biochemical; conditions: FLuc enzymatic assay; read-out: IC50 or SDR50 (mM) FLuc E
Sequence (P08659 whole entry): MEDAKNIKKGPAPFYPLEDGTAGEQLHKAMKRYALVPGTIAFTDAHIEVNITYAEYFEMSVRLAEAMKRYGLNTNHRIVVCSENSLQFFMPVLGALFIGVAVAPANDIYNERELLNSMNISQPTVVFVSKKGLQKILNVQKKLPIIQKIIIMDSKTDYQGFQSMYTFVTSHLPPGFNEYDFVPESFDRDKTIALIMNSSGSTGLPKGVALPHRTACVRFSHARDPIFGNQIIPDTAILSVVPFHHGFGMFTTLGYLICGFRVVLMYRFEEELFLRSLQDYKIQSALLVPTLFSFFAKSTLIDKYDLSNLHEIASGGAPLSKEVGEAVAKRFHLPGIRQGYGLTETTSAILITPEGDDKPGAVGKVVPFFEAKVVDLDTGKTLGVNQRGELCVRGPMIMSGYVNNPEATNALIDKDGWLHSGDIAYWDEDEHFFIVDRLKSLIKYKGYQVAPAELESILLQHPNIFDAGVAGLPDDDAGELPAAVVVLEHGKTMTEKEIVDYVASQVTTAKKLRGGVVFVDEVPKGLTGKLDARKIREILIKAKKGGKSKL

>  <MOLECULE>
O=C(NCc1cc(F)ccc1F)C1CCN(C(=O)c2ncn3c2COC(c2ccccc2)C3)CC1 (stereo not shown) [NCGC00449804-01]

>  <UNIT ANNOTATION>
mM

>  <IC50>
0.00393

$$$$
>  <MOLECULE>
O=C(NCc1ccncc1)C1CCN(C(=O)c2ncn3c2COC(c2ccccc2)C3)CC1 (stereo not shown) [NCGC00449800-01]

>  <UNIT ANNOTATION>
mM

>  <IC50>
0.00099

$$$$
>  <MOLECULE>
O=C(NCc1ccc(F)cc1Cl)C1CCN(C(=O)c2ncn3c2COC(c2ccccc2)C3)CC1 (stereo not shown) [NCGC00449789-01]

>  <UNIT ANNOTATION>
mM

>  <IC50>
0.00988

$$$$
>  <MOLECULE>
O=C(NCc1ccc(Cl)cc1)C1CCN(C(=O)c2ncn3c2COC(c2ccccc2)C3)CC1 (stereo not shown) [NCGC00449788-01]

>  <UNIT ANNOTATION>
mM

>  <IC50>
0.00393

$$$$
>  <MOLECULE>
COc1cccc(CNC(=O)C2CCN(C(=O)c3ncn4c3COC(c3ccccc3)C4)CC2)c1 (stereo not shown) [NCGC00449777-01]

>  <UNIT ANNOTATION>
mM

>  <IC50>
0.00555

$$$$
>  <MOLECULE>
O=C(NCCc1ccccc1)C1CCN(C(=O)c2ncn3c2COC(c2ccccc2)C3)CC1 (stereo not shown) [NCGC00449794-01]

>  <UNIT ANNOTATION>
mM

>  <IC50>
0.00221

$$$$
>  <MOLECULE>
CSc1ccc(CNC(=O)C2CCN(C(=O)c3ncn4c3COC(c3ccccc3)C4)CC2)cc1 (stereo not shown) [NCGC00449782-01]

>  <UNIT ANNOTATION>
mM

>  <IC50>
0.00555

$$$$
>  <MOLECULE>
O=C(NCCC1=CCCCC1)C1CCN(C(=O)c2ncn3c2COC(c2ccccc2)C3)CC1 (stereo not shown) [NCGC00449771-01]

>  <UNIT ANNOTATION>
mM

>  <IC50>
0.00278

$$$$
>  <MOLECULE>
O=C(NCc1ccc(F)c(Cl)c1)C1CCN(C(=O)c2ncn3c2COC(c2ccccc2)C3)CC1 (stereo not shown) [NCGC00449790-01]

>  <UNIT ANNOTATION>
mM

>  <IC50>
0.0035

$$$$
>  <MOLECULE>
CC1CCC(NC(=O)C2CCN(C(=O)c3ncn4c3COC(c3ccccc3)C4)CC2)CC1 (stereo not shown) [NCGC00449768-01]

>  <UNIT ANNOTATION>
mM

>  <IC50>
0.00197

$$$$
>  <MOLECULE>
Cc1ccc(C2Cn3cnc(C(=O)N4CCC(C(=O)NCCC(C)C)CC4)c3CO2)cc1 (stereo not shown) [NCGC00422121-01]

>  <UNIT ANNOTATION>
mM

>  <IC50>
0.0139

$$$$
>  <MOLECULE>
O=C(NCCCc1ccccc1)C1CCN(C(=O)c2ncn3c2COC(c2ccccc2)C3)CC1 (stereo not shown) [NCGC00449797-01]

>  <UNIT ANNOTATION>
mM

>  <IC50>
0.00441

$$$$
>  <MOLECULE>
O=C(NCc1ccccc1)C1CCN(C(=O)c2ncn3c2COC(c2ccc(F)cc2)C3)CC1 (stereo not shown) [NCGC00449813-01]

>  <UNIT ANNOTATION>
mM

>  <IC50>
0.0124

$$$$
>  <MOLECULE>
O=C(NCCc1cccs1)C1CCN(C(=O)c2ncn3c2COC(c2ccccc2)C3)CC1 (stereo not shown) [NCGC00449796-01]

>  <UNIT ANNOTATION>
mM

>  <IC50>
0.00555

$$$$
>  <MOLECULE>
O=C(NCc1ccc2c(c1)OCO2)C1CCN(C(=O)c2ncn3c2COC(c2ccccc2)C3)CC1 (stereo not shown) [NCGC00449781-01]

>  <UNIT ANNOTATION>
mM

>  <IC50>
0.00312

$$$$
>  <MOLECULE>
COc1ccccc1CNC(=O)C1CCN(C(=O)c2ncn3c2COC(c2ccccc2)C3)CC1 (stereo not shown) [NCGC00449776-01]

>  <UNIT ANNOTATION>
mM

>  <IC50>
0.00221

$$$$
>  <MOLECULE>
CC(CNC(=O)C1CCN(C(=O)c2ncn3c2COC(c2ccccc2)C3)CC1)c1ccccc1 (stereo not shown) [compound 00449795]

>  <UNIT ANNOTATION>
mM

>  <IC50>
0.00197

$$$$
>  <MOLECULE>
COc1ccc(CNC(=O)C2CCN(C(=O)c3ncn4c3COC(c3ccccc3)C4)CC2)cc1 (stereo not shown) [NCGC00449778-01]

>  <UNIT ANNOTATION>
mM

>  <IC50>
0.00988

$$$$
>  <MOLECULE>
O=C(NCc1ccco1)C1CCN(C(=O)c2ncn3c2COC(c2ccccc2)C3)CC1 (stereo not shown) [NCGC00449791-01]

>  <UNIT ANNOTATION>
mM

>  <IC50>
0.00278

$$$$
>  <MOLECULE>
O=C(NCc1ccc(F)cc1F)C1CCN(C(=O)c2ncn3c2COC(c2ccccc2)C3)CC1 (stereo not shown) [NCGC00449785-01]

>  <UNIT ANNOTATION>
mM

>  <IC50>
0.0088

$$$$
>  <MOLECULE>
O=C(NC1CCCCCC1)C1CCN(C(=O)c2ncn3c2COC(c2ccccc2)C3)CC1 (stereo not shown) [NCGC00449769-01]

>  <UNIT ANNOTATION>
mM

>  <IC50>
0.00555

$$$$
>  <MOLECULE>
O=C(NCc1cccc(Cl)c1)C1CCN(C(=O)c2ncn3c2COC(c2ccccc2)C3)CC1 (stereo not shown) [NCGC00449787-01]

>  <UNIT ANNOTATION>
mM

>  <IC50>
0.0111

$$$$
>  <MOLECULE>
Cc1ccccc1CNC(=O)C1CCN(C(=O)c2ncn3c2COC(c2ccccc2)C3)CC1 (stereo not shown) [NCGC00449798-01]

>  <UNIT ANNOTATION>
mM

>  <IC50>
0.00555

$$$$
>  <MOLECULE>
O=C(NC1CCCCCCC1)C1CCN(C(=O)c2ncn3c2COC(c2ccc(F)cc2)C3)CC1 (stereo not shown) [NCGC00449810-01]

>  <UNIT ANNOTATION>
mM

>  <IC50>
0.0157

$$$$
>  <MOLECULE>
CCCCNC(=O)C1CCN(C(=O)c2ncn3c2COC(c2ccc(F)cc2)C3)CC1 (stereo not shown) [NCGC00449812-01]

>  <UNIT ANNOTATION>
mM

>  <IC50>
0.0124

$$$$
>  <MOLECULE>
O=C(NCCC1=CCCCC1)C1CCN(C(=O)c2ncn3c2COC(c2ccc(F)cc2)C3)CC1 (stereo not shown) [NCGC00449811-01]

>  <UNIT ANNOTATION>
mM

>  <IC50>
0.00988

$$$$
>  <MOLECULE>
CCCCNC(=O)C1CCN(C(=O)c2ncn3c2COC(c2ccccc2)C3)CC1 (stereo not shown) [NCGC00449772-01]

>  <UNIT ANNOTATION>
mM

>  <IC50>
0.00784

$$$$
>  <MOLECULE>
O=C(NCCCc1ccccc1)C1CCN(C(=O)c2ncn3c2COC(c2ccc(F)cc2)C3)CC1 (stereo not shown) [NCGC00449829-01]

>  <UNIT ANNOTATION>
mM

>  <IC50>
0.0111

$$$$
>  <MOLECULE>
O=C(NCc1cccc(F)c1)C1CCN(C(=O)c2ncn3c2COC(c2ccccc2)C3)CC1 (stereo not shown) [NCGC00449803-01]

>  <UNIT ANNOTATION>
mM

>  <IC50>
0.00784

$$$$
>  <MOLECULE>
O=C(NCc1cccs1)C1CCN(C(=O)c2ncn3c2COC(c2ccccc2)C3)CC1 (stereo not shown) [NCGC00449792-01]

>  <UNIT ANNOTATION>
mM

>  <IC50>
0.00312

$$$$
>  <MOLECULE>
O=C(NCc1ccccc1)C1CCN(C(=O)c2ncn3c2COC(c2ccccc2)C3)CC1 (stereo not shown) [NCGC00449773-01]

>  <UNIT ANNOTATION>
mM

>  <IC50>
0.00278

$$$$
